B1: library; numbered along this chain (parent)
chain: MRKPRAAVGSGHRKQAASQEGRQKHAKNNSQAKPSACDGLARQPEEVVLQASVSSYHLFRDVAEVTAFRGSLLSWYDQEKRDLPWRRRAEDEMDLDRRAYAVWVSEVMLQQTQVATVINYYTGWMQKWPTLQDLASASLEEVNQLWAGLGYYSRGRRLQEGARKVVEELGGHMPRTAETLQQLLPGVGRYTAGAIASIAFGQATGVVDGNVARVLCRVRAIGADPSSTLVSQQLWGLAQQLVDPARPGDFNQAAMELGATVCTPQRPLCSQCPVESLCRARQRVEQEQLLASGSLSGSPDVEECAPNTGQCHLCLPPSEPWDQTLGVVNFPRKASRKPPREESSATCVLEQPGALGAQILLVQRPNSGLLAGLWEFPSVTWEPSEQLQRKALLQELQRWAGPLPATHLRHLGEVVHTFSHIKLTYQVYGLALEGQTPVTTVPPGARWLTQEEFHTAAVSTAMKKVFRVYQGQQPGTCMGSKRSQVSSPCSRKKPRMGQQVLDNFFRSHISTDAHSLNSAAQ

# Variants of: B1
# EXPERIMENT SUMMARY: 8OG:A repair function score (normalized; synonymous = 0, nonsense = -1) (normalized log-likelihood score); higher = more repair activity (WT-like);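 also: cells sorted at 72 h after reporter transfection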
# PROTOCOL CONDITIONS: with 8OG:A DNA repair reporter (GFP) in HEK-293 MUTYH KO cells
READOUT TYPE: 8OG:A repair function score

MUTATION CODE	VAL
S74C	-0.0037
G236Q	0.356
V65H	-0.0853
G412L	-0.855
E302K	-0.367
T324Q	-0.0692
V65I	-0.000598
Q288E	-0.0177
N251Y	-1.01
G150C	-0.982
A456Y	-0.476
P474Y	-0.0117
D502Q	-0.0749
G297V	0.0126
V211S	-0.531
H454K	-0.0092
L183Q	0.0196
S54A	0.00533
A199K	-1.14
V114T	-0.141
Q43I	0.0991
W447F	-0.355
T476F	0.0194
V414R	-0.625
W85R	-1.51
A63T	0.00284
S343V	0.0196
L169C	-0.0691
S74N	-0.0112
A147C	-0.226
E64I	-0.193
Q470A	-0.0419
L95N	-8.88e-05
A67S	0.00133
R2K	0.125
L423D	-0.261
